# TEST SYSTEM: purified recombinant active kinase domain of full length PKC theta (amino acids 362-706) (Homo sapiens)
# Construct: active kinase domain of full length PKC theta (amino acids 362-706)
# ASSAY: Radioactive kinase assay for inhibition of the active kinase domain (KD) of PKCθ
# CONDITION SUMMARY: radioactive (ATP γ P33) assay, average value
Listing of recorded pIC50 by entry.
Field pIC50 (float): negative decimal logarithm of the concentration in molar.

// worked examples, pIC50 included
{"columns": ["MOLECULE", "RESULT TYPE", "TEST VALUE"],
 "data": [
  ["COc1ccc(Nc2c(C#N)cncc2-c2ccc(OC)c(OC)c2)cc1 [Compound 110]", "pIC50", 5.94],
  ["COc1ccc(-c2cncc(C#N)c2Nc2cccc(OCc3ccccc3)c2)cc1OC [Compound 117]", "pIC50", 4.86],
  ["COc1ccc(-c2cncc(C#N)c2Nc2ccc(OCc3cccs3)c(Cl)c2)cc1OC [Compound 123]", "pIC50", 4.42],
  ["COc1ccc(Nc2c(C#N)cncc2-c2ccc(OC)c(OC)c2)cc1Cl [Compound 111]", "pIC50", 5.85],
  ["COc1ccc(Cl)cc1Nc1c(C#N)cncc1-c1ccc(OC)c(OC)c1 [Compound 116]", "pIC50", 5.49],
  ["COc1ccc(-c2cncc(C#N)c2Nc2ccc(Cl)c(Cl)c2)cc1OC [Compound 115]", "pIC50", 5.37],
  ["COc1ccc(-c2cncc(C#N)c2Nc2ccc(C)cc2)cc1OC [Compound 118]", "pIC50", 5.35],
  ["COc1ccc(-c2cncc(C#N)c2Nc2ccc(C)cc2C)cc1OC [Compound 109]", "pIC50", 6.09]
]}

Now for the molecule whose pIC50 we want.
N#Cc1cncc(-c2cccc([N+](=O)[O-])c2)c1Nc1ccc(F)c(Cl)c1 [Compound 144] has a reported pIC50 of 3.80

====

# TEST SYSTEM: human PKCθ full length enzyme (Homo sapiens)
# Sequence (Q04759 whole entry): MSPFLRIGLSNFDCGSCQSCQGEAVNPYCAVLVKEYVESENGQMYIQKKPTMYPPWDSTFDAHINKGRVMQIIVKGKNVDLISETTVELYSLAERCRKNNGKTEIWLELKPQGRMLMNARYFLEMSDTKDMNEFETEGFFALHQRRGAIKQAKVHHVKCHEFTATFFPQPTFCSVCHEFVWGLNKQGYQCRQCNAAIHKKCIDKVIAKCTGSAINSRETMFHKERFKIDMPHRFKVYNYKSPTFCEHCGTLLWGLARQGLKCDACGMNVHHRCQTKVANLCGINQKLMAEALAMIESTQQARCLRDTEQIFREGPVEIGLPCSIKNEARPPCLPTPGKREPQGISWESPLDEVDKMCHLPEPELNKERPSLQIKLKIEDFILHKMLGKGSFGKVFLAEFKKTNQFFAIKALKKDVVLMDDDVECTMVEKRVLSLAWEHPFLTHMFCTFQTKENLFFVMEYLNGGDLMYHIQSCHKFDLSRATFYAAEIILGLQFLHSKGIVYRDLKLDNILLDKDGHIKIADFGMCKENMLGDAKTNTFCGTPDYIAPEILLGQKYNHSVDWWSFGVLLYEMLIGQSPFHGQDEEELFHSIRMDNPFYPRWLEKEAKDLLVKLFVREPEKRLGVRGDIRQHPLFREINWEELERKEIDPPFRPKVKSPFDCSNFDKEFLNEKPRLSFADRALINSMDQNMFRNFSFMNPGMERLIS
Please note: IC50 exactly at 600 nM is Not met. Only values below 600 nM get Met.

Use these answered entries as a reference point.
{"columns": ["MOLECULE SMILES", "ASSIGNED CLASS"],
 "data": [
  ["CN(C)c1ccc(-c2cncc(C#N)c2Nc2ccc(C#N)cc2)cc1", "Not met"],
  ["COc1ccc(-c2cncc(C#N)c2Nc2cc(OCCO)c(Cl)cc2Cl)cc1OC", "Met"],
  ["Cc1cc(Nc2c(C#N)cncc2-c2cc3cc(CN4CCCCC4)ccc3s2)ccc1N", "Not met"]
]}

Exercise: Does the reported IC50 of the following compound sit strictly below 600 nM? `N#Cc1cncc(-c2cc3cc(C=O)ccc3s2)c1Nc1cc(O)ccc1Cl`
Solution: Met

Exercise: Dear reviewer, please state whether `COc1cccc(-c2cncc(C#N)c2Nc2ccc(C(=O)O)cc2)c1` has IC50 strictly beneath 600 nM.
Solution: Not met

Exercise: # strict comparison: is reported IC50 < 600 nM? input = `Cc1ccc(Cl)c(Nc2c(C#N)cncc2-c2cc3cc(CN4CCCCC4)ccc3o2)c1`
Solution: Not met

Exercise: Please indicate whether the reported IC50 of `CN(C)c1ccc(-c2cncc(C#N)c2Nc2cccc([N+](=O)[O-])c2)cc1` is strictly below 600 nM.
Solution: Not met

Exercise: Quick check: IC50 of `COc1ccc(-c2cncc(C#N)c2Nc2cccc(OCCO)c2)cc1OC` under 600 nM?
Solution: Not met

Exercise: Is IC50 strictly under 600 nM for the entry `COc1cc(Nc2c(C#N)cncc2-c2ccc(OC)c(OC)c2)c(Cl)cc1Cl` ?
Solution: Met

Exercise: Lab note: IC50 threshold 600 nM. Does this compound come in strictly under it? `N#Cc1cncc(-c2cc3cc(CN4CCCCC4)ccc3o2)c1Nc1cc(O)ccc1Oc1ccccc1`
Solution: Not met

Exercise: Does `COc1ccc(-c2cncc(C#N)c2NCc2cccc(CN)c2)cc1OC` have IC50 strictly under 600 nM?
Solution: Not met

Exercise: Threshold test, IC50 < 600 nM: `N#Cc1cncc(-c2cc3cc(CN4CCCCC4)ccc3o2)c1Nc1cc(O)c(Cl)cc1Cl`
Solution: Met

Exercise: For `COc1ccc(-c2cncc(C#N)c2Nc2cccc(O)c2)cc1OC` , is the recorded IC50 below the cut-off of 600 nM?
Solution: Met

Exercise: Does the reported IC50 of `COc1cccc(Nc2c(C#N)cncc2-c2cccc(OC)c2)c1` stay below 600 nM?
Solution: Not met

====

# TEST SYSTEM: purified recombinant full length PKC theta (Panvera, P2996) (Homo sapiens)
# Construct: purified recombinant full length PKC theta (Panvera, P2996)
# Sequence (Q04759 whole entry): as above
# ASSAY: Radioactive kinase assay for inhibition of full length (FL) PKCθ
# CONDITION SUMMARY: full length enzyme; radioactive (ATP γ P33) assay; average value
pIC50: −log10 of the molar value.
Classify as follows. Reported pIC50 greater than or equal to 6: y. Reported pIC50 below: n.

{"columns": ["MOLECULE SMILES", "ASSIGNED CLASS"],
 "data": [
  ["COc1cc(Nc2c(C#N)cncc2-c2ccc(OC)c(OC)c2)c(Cl)cc1Cl", "y"],
  ["CCCCOc1cc(Nc2c(C#N)cncc2-c2ccc(OC)c(OC)c2)c(Cl)cc1Cl", "n"],
  ["COc1ccc(-c2cncc(C#N)c2Nc2cc(OCCO)c(Cl)cc2Cl)cc1OC", "y"],
  ["COCCOc1cc(-c2cncc(C#N)c2Nc2cc(OC)c(Cl)cc2Cl)ccc1OC", "y"],
  ["CCOc1cc(Nc2c(C#N)cncc2-c2ccc(OC)c(OC)c2)c(Cl)cc1Cl", "y"]
]}

Exercise: Does pIC50 meet or surpass 6 for `CCCOc1cc(Nc2c(C#N)cncc2-c2ccc(OC)c(OC)c2)c(Cl)cc1Cl` ?
Solution: n

Exercise: In plain terms: is recorded pIC50 at least 6 for `COc1ccc(-c2cncc(C#N)c2Nc2ccc(Cl)c(Cl)c2)cc1OC` ?
Solution: y

====

# TEST SYSTEM: purified recombinant active kinase domain of full length PKC theta (amino acids 362-706) (Homo sapiens)
# Construct: active kinase domain of full length PKC theta (amino acids 362-706)
# ASSAY: Radioactive kinase assay for inhibition of the active kinase domain (KD) of PKCθ
# CONDITION SUMMARY: radioactive (ATP γ P33) assay, average value
RESULT TYPE: IC50 (nM)
Output spec: scalar in nM, unitless text.

In the examples that follow, each entry is paired with its recorded IC50.
{"columns": ["MOLECULE SMILES", "IC50, nM"],
 "data": [
  ["COc1ccc(-c2cncc(C#N)c2Nc2cc(Cl)ccc2Cl)cc1OC", 3600],
  ["COc1ccc(-c2cncc(C#N)c2Nc2ccc(Cl)cc2)cc1OC", 2770],
  ["COc1ccc(-c2cncc(C#N)c2Nc2cc(F)ccc2F)cc1OC", 600],
  ["N#Cc1cncc(-c2cccc([N+](=O)[O-])c2)c1Nc1ccc(OCc2ccccc2)c(Cl)c1", 214000]
]}

Now take the following compound into account.
GET /value?item= `COc1ccc(Nc2c(C#N)cncc2-c2ccc(OC)c(OC)c2)c(C)c1` &field=IC50 returns 400

====

# TEST SYSTEM: purified recombinant active kinase domain of full length PKC theta (amino acids 362-706) (Homo sapiens, UniProt Q04759)
# Construct: active kinase domain of full length PKC theta (amino acids 362-706)
# ASSAY: Radioactive kinase assay for inhibition of the active kinase domain (KD) of PKCθ
# CONDITION SUMMARY: radioactive (ATP γ P33) assay, average value
RESULT TYPE: IC50 (µM)
Kindly provide the numeric value in µM only, without the unit symbol.

{"columns": ["MOLECULE SMILES", "UNIT NAME", "TEST VALUE"],
 "data": [
  ["COc1ccc(-c2cncc(C#N)c2Nc2cc(OC)c(OC)c(OC)c2)cc1OC", "µM", 11.7],
  ["COc1ccc(-c2cncc(C#N)c2Nc2ccc(F)c(Cl)c2)cc1OC", "µM", 2.91],
  ["COc1ccc(-c2cncc(C#N)c2Nc2cccc(Br)c2)cc1OC", "µM", 5],
  ["N#Cc1cncc(-c2ccccc2[N+](=O)[O-])c1Nc1ccc(F)c(Cl)c1", "µM", 3.85]
]}

# context switch: different compound, same IC50
Reported IC50 of `COc1ccc(Nc2c(C#N)cncc2-c2ccc(OC)c(OC)c2)cc1OC` : 10.6

====

# TEST SYSTEM: purified recombinant active kinase domain of full length PKC theta (amino acids 362-706) (Homo sapiens, UniProt Q04759)
# Construct: active kinase domain of full length PKC theta (amino acids 362-706)
# ASSAY: Radioactive kinase assay for inhibition of the active kinase domain (KD) of PKCθ
# Assay type: biochemical
# CONDITION SUMMARY: radioactive (ATP γ P33) assay, average value
RESULT TYPE: pIC50
Quick note: pIC50 values are minus log10 of concentrations in mol/L.

Here is how some compounds turned out for pIC50.
{"columns": ["MOLECULE SMILES", "pIC50"],
 "data": [
  ["COc1ccc(-c2cncc(C#N)c2Nc2ccc(Cl)cc2Cl)cc1OC", 6.47],
  ["COc1cc(Nc2c(C#N)cncc2-c2ccc(OC)c(OC)c2)c(Cl)cc1Cl", 6.72],
  ["COc1ccc(-c2cncc(C#N)c2Nc2ccc(OCc3cccc(C#N)c3)c(Cl)c2)cc1OC", 2.98],
  ["COc1ccc(-c2cncc(C#N)c2Nc2cccc(Cl)c2)cc1OC", 5.16]
]}

Pending compound:
GET /value?item= `COc1ccc(-c2cncc(C#N)c2Nc2ccc(Cl)cc2F)cc1OC` &field=pIC50 returns 6.08
